assay.remarks: Cytotoxicity against human MIAPaCa2 cells
Assay type: functional, cell-based
measurement.conditions: MIA PaCa-2
endpoint.label: pIC50
pIC50 (log units): -log10 of the concentration in mol/L.

[in] So what does the record say about pIC50 for CC[n+]1c(C=CC=C2N(C)c3ccccc3C2(C)C)sc2ccccc21 ?
[out] 8.00

====

The reader will find reported MIC values listed item by item below.
Tested on: Saccharomyces cerevisiae
assay.remarks: Inhibition of Sir2p in yeast DMY2844 assessed as growth inhibition after 48 hrs
Give just the numeric value; µM need not be written.

{"smiles.data": "COC(=O)c1ccc(N(C)C)cc1", "measurement.unit": "µM", "MIC": 400}
{"smiles.data": "Cc1ccc(C(=O)O)cc1", "measurement.unit": "µM", "MIC": 800}
{"smiles.data": "CC(C)c1ccc(C(=O)O)cc1", "measurement.unit": "µM", "MIC": 200}
{"smiles.data": "CNc1ccc(C(=O)O)cc1", "measurement.unit": "µM", "MIC": 400}
{"smiles.data": "CC(C)(C)c1ccc(C(=O)O)cc1", "measurement.unit": "µM", "MIC": 50}
{"smiles.data": "CN(C)c1ccc(C(=O)O)cc1", "measurement.unit": "µM", "MIC": 200}

For the next question, use this compound.
[in] So what does the record say about MIC for Nc1ccc(C(=O)O)cc1 ?
[out] 800

Every entry's value here was drawn from ChEMBL document CHEMBL3098037.
